Each item that follows carries a reported EC50.
TARGET_DESC: RARG (gamma) ligand binding domain (Homo sapiens, UniProt P13631)
Sequence (P13631 185-419 limits assumed): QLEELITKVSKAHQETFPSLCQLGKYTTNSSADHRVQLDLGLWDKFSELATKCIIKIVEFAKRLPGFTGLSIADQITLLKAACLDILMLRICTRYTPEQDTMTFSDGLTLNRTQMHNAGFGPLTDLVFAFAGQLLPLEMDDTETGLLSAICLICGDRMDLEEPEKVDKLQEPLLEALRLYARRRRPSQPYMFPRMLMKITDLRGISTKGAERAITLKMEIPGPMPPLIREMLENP
MEASUREMENT_DESCRIPTION: RAR LBD-SRC1-2 coactivator peptide recruitment assay, agonist format, RARG
Assay type: biochemical
ASSAY_SETUP: read-out: RARγ pEC50 (converted)
Description: RAR ligand binding domain (LBD)‐SRC1‐2 coactivator peptide (NCOA1_677‐700 biotinylated) recruitment assays were established for the three RAR isotypes RARA (alpha), RARB (beta), and RARG (gamma) to determine relative potencies. […] A total of 0.4 μL of a fixed concentration range of test ligands dissolved in dimethyl sulphoxide (DMSO) was added to assay plates using an acoustic liquid dispenser. […]

CC1(C)CCC(C)(C)c2cc(C(=O)Nc3ccc(C(=O)O)c(F)c3)ccc21 :: 0.1 µM
CC1=C(/C=C/C(C)=C/C=C/C(C)=C/CO)C(C)(C)CCC1 :: > 20 µM
Cc1ccc(C2=CC(C)(C)Oc3c(Br)cc(C(=O)Nc4ccc(C(=O)O)c(F)c4)cc32)cc1 :: > 20 µM
Cc1cc2c(cc1-c1cc(/C=C/C(=O)O)ccc1O)C(C)(C)CCC2(C)C :: > 20 µM

Consider the additional compound presented here.
Consider the compound "CC1(C)CCC(C)(C)c2cc(C3(c4ccc(C(=O)O)cc4)OCCO3)ccc21" . State its measured EC50. > 20 µM
